Record form. Attribute: melting point. Fill in for each entry.

Which value of melting point has been reported for CC(=O)Nc1ccc(Nc2c(NCCNc3cc(N4CCCC4)nc(N4CCCC4)n3)c(=O)c2=O)cc1 [Example 13] in the records?
263 to 265 °C

Which value of melting point has been reported for O=c1c(NCCNc2cc(N3CCCC3)nc(N3CCCC3)n2)c(Nc2ccc3c(c2)OCO3)c1=O [Example 26] in the records?
180 to 190 °C

Batch: melting point for all items listed.
1. COc1cccc(Nc2c(NCCNc3cc(N4CCCC4)nc(N4CCCC4)n3)c(=O)c2=O)c1 [Example 20]
2. CC(C)(C)OC(=O)NCc1ccc(Nc2c(NCCNc3cc(N4CCCC4)nc(N4CCCC4)n3)c(=O)c2=O)cc1 [Example 25]
3. O=c1c(NCCNc2cc(N3CCCC3)nc(N3CCCC3)n2)c(Nc2cc(F)cc(F)c2)c1=O [Example 15]
4. COc1cc(Nc2c(NCCNc3cc(N4CCCC4)nc(N4CCCC4)n3)c(=O)c2=O)cc(OC)c1OC [Example 14]

205 to 207 °C
176 to 180 °C
192 to 194 °C
154 to 156 °C

====

Tested On: purified recombinant CDC25C enzyme (MBP-CDC25C protein) (Homo sapiens)
Construct: made in house
Sequence (P30307 whole entry): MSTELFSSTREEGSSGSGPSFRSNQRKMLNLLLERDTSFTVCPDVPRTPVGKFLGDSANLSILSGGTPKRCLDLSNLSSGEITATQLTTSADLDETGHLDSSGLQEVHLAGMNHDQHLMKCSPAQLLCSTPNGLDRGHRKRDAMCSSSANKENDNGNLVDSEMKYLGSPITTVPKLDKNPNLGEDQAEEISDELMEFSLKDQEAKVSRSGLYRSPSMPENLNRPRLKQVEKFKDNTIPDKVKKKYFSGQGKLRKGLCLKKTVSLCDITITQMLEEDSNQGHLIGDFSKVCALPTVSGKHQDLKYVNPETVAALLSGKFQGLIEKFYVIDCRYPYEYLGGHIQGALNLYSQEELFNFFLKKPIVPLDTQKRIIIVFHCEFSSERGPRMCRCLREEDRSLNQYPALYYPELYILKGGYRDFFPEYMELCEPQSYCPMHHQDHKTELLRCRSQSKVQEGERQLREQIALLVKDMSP
Run Description: Phosphatase activity of the purified recombinant CDC25C enzyme (OMFP dephosphorylation, fluorescence)
Assay type: biochemical
Condition Info: OMFP 500 μM, 4 hours at 30° C., three independent experiments; nested upper bounds; read-out: IC50 for the phosphatase activity of the purified recombinant CDC25-C enzyme
Record form. Attribute: IC50. Fill in for each entry.

The examples below pair each entry with its known result.
Which value of IC50 has been reported for CNCc1ccc(Nc2c(NCCNc3cc(N4CCCC4)nc(N4CCCC4)n3)c(=O)c2=O)cc1.Cl [Example 22, hydrochloride] in the records?
≤ 5000 nM

Which value of IC50 has been reported for CCCCNc1c(NCCNc2cc(N3CCCC3)nc(N3CCCC3)n2)c(=O)c1=O [Example 3] in the records?
≤ 1000 nM

Which value of IC50 has been reported for CCCc1ccc(Nc2c(NCCNc3cc(N4CCCC4)nc(N4CCCC4)n3)c(=O)c2=O)cc1 [Example 24] in the records?
≤ 1000 nM

Batch: IC50 for all items listed.
1. O=c1c(NCCNc2cc(N3CCCC3)nc(N3CCCC3)n2)c(Nc2cccc(Cl)c2)c1=O [Example 17]
2. O=c1c(NCCNc2cc(N3CCCC3)nc(N3CCCC3)n2)c(Nc2ccc(F)cc2)c1=O [Example 31]
3. COc1cc(Nc2c(NCCNc3cc(N4CCCC4)nc(N4CCCC4)n3)c(=O)c2=O)cc(OC)c1OC [Example 14]
4. N#Cc1ccc(Nc2c(NCCNc3cc(N4CCCC4)nc(N4CCCC4)n3)c(=O)c2=O)cc1 [Example 33]

["≤ 5000 nM", "≤ 1000 nM", "≤ 5000 nM", "≤ 1000 nM"]

====

Record form. Attribute: melting point. Fill in for each entry.

Which value of melting point has been reported for "O=c1c(NCCNc2cc(N3CCCC3)nc(N3CCCC3)n2)c(Nc2ccc(F)cc2)c1=O" in the records?
241 to 243 °C

Which value of melting point has been reported for "O=c1c(NCCNc2cc(N3CCCC3)nc(N3CCCC3)n2)c(N2CCCCC2)c1=O" in the records?
> 250 °C

Which value of melting point has been reported for "N#Cc1ccc(Nc2c(NCCNc3cc(N4CCCC4)nc(N4CCCC4)n3)c(=O)c2=O)cc1" in the records?
> 250 °C

Which value of melting point has been reported for "O=c1c(NCCNc2cc(N3CCCC3)nc(N3CCCC3)n2)c(Nc2ccccc2Cl)c1=O" in the records?
179 to 181 °C

Batch: melting point for all items listed.
1. COc1c(NCCNc2cc(N3CCCC3)nc(N3CCCC3)n2)c(=O)c1=O
2. CNCc1ccc(Nc2c(NCCNc3cc(N4CCCC4)nc(N4CCCC4)n3)c(=O)c2=O)cc1.Cl
3. CN(CCNc1cc(N2CCCC2)nc(N2CCCC2)n1)CCNc1c(Nc2ccc(Cl)cc2)c(=O)c1=O
4. O=c1c(NCCNc2cc(N3CCCC3)nc(N3CCCC3)n2)c(Nc2ccc(C(F)(F)F)cc2)c1=O

1: 116 to 118 °C; 2: > 260 °C; 3: 144 to 146 °C; 4: > 250 °C
